TEST_TARGET: Aurora kinase A (Homo sapiens)
RUN_PARAMETERS: Compound concentration 20.0 uM
Description: Thermal Shift Assay. Domain: start/stop: E122-S403
EXPERIMENTAL_READOUT: ΔTm (°C)
The figure you give is taken to be in °C; do not add the unit.

CC(=O)N[C@@H](CC(=O)O)C(=O)N[C@@H](CCC(=O)O)C(=O)N[C@H](C(=O)N[C@H](C=O)CC(=O)O)C(C)C -1.77
CCN(CC)C(=O)/C(C#N)=C/c1cc(O)c(O)c([N+](=O)[O-])c1 -0.58
Cc1ncc(Cl)cc1NCc1ccc(C(=O)N[C@@H](CC2CCCC2)C(=O)NC2CC2)s1 7.63
CN1CCN(c2ccc3nc(-c4c(N)c5c(F)cccc5[nH]c4=O)[nH]c3c2)CC1 2.63

Exercise: Name the recorded ΔTm of the item `O=C(NCc1ncccc1F)c1coc(CCNCCc2nc3ccccc3[nH]2)n1` in your answer.
Solution: -2.57

====

TEST_TARGET: Aurora kinase A (Homo sapiens)
RUN_PARAMETERS: Compound concentration 20.0 uM
EXPERIMENTAL_READOUT: ΔTm (°C)
Note: unit °C is implicit; provide only the numeric part.

These solved cases illustrate the format of a correct answer.
O=C(O)/C(S)=C/c1c[nH]c2ccc(F)cc12 0.25
CS(=O)(=O)n1cc2c(n1)CN([C@H]1CO[C@H](c3cc(F)ccc3F)[C@@H](N)C1)C2 -2.29
O=c1[nH]c(N2CCC3(CC2)CN(CCO)c2cc(F)cc(F)c23)nc2c1CCCC2 -0.79
C[C@@H](Oc1ccc(S(C)(=O)=O)cc1C(=O)N1C[C@@H]2C[C@]2(c2cc(C(F)(F)F)on2)C1)C(F)(F)F -2.51
Nc1c[nH]c(=O)c2cc(-c3ccccc3)sc12 -0.64

Exercise: In one line, give reported ΔTm of the entry `CNCc1ccc(-c2cc3cc(F)cc(C(N)=O)c3o2)cc1` .
Solution: -1.29

Exercise: Report ΔTm for `CC(C)c1ccc(C(=O)N=C(N)N)cc1S(C)(=O)=O`
Solution: -2.37

Exercise: Report ΔTm, nothing else, for this molecule: `Cn1cc(-c2ccncc2)c(-c2ccc(OCc3ccc4ccccc4n3)cc2)n1`
Solution: 2.06

Exercise: Please give the documented ΔTm of `CC(C)c1c(-c2ccccc2)[nH]c2c(C#N)cnn2c1=O`
Solution: -1.64

Exercise: Write down ΔTm measured for item `CCCCCCCCCCCCC/C=C/[C@@H](O)[C@H](CO)NC(=O)CBr`
Solution: -14.4

====

TEST_TARGET: Glycogen synthase kinase-3 beta (Homo sapiens) (UniProt P49841)
Sequence (P49841 whole entry, looked up): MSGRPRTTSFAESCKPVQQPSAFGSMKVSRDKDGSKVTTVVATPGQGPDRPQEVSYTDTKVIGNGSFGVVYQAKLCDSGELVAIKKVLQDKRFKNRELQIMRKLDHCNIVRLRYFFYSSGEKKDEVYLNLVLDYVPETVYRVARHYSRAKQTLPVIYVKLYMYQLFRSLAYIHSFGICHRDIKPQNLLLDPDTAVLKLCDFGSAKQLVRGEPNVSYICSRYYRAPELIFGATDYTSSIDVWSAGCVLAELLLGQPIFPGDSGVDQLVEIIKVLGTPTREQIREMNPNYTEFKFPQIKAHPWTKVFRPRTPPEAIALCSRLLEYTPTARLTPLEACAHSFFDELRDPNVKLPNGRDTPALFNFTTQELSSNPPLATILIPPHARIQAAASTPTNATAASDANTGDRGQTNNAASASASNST
RUN_PARAMETERS: Compound concentration 20.0 uM
Description: Thermal Shift Assay. Domain: start/stop: M26-R383
Hi! Just check whether ΔTm is below -0.6 °C. Below gives true (1), equal or above gives false (0).

Exercise: Bench note: check whether `CC(C)Oc1ccc(C=O)cc1` shows ΔTm below -0.6 °C
Solution: true (1)

Exercise: In the record for `CC(C)(F)C[C@H](N[C@@H](c1ccc(-c2ccc(S(C)(=O)=O)cc2)cc1)C(F)(F)F)C(=O)NC1(C#N)CC1` , is ΔTm less than -0.6 °C?
Solution: false (0)

Exercise: Field: below-cutoff. Rule: recorded ΔTm strictly less than -0.6 °C. Subject: `CC(C)(C)c1ccc(S(=O)(=O)NCc2ccc(C(=O)Nc3cccnc3)cc2)cc1`
Solution: true (1)

Exercise: Does the reported ΔTm of `CN(CCOc1ccc(-c2ccc3c(c2)OCO3)cc1C(C)(C)C)CC(=O)O` stay below -0.6 °C?
Solution: false (0)

Exercise: Given the entry `CC#CCn1c(N2CCC[C@@H](N)C2)nc2c1c(=O)n(Cc1nc(C)c3ccccc3n1)c(=O)n2C` , would its reported ΔTm be below -0.6 °C?
Solution: true (1)

====

TEST_TARGET: Mitogen-activated protein kinase 1 (Homo sapiens)
RUN_PARAMETERS: Compound concentration 20.0 uM
Description: Thermal Shift Assay. Domain: start/stop: M1-S360
EXPERIMENTAL_READOUT: ΔTm

COMPOUND	TEST_TARGET	ΔTm
NS(=O)(=O)OC[C@H]1C[C@@H](Nc2ccnc3cc(-c4cccc(SC(F)(F)F)c4)nn23)[C@H](O)[C@@H]1O	Mitogen-activated protein kinase 1 (Homo sapiens)	0.75 °C
O=C(NO)C(c1ccc(-c2ncc(C(F)(F)F)cn2)cc1)c1ccccc1F (centres undefined)	Mitogen-activated protein kinase 1 (Homo sapiens)	0.1 °C
CC#CCn1c(N2CCC[C@@H](N)C2)nc2c1c(=O)n(Cc1nc(C)c3ccccc3n1)c(=O)n2C	Mitogen-activated protein kinase 1 (Homo sapiens)	0.06 °C
COc1ncc(C)c(-c2ccc3c(c2)[nH]c(=O)c2cnn([C@H]4CCOC4)c23)c1C	Mitogen-activated protein kinase 1 (Homo sapiens)	-0.06 °C
Cc1cc(/N=N/c2ccc(S(=O)(=O)NC3CCCC3)cc2)c(N)cc1O	Mitogen-activated protein kinase 1 (Homo sapiens)	2.73 °C

Exercise: Specify ΔTm for `COc1cc2c(NC3CCN(CC4CCCCC4)CC3)nc(N3CCCN(C(C)C)CC3)nc2cc1OCCCN1CCCCC1` and stop.
Solution: -0.16 °C

Exercise: Input `CS(=O)(=O)c1ccc(Oc2cc(F)cc(C#N)c2)c2c1[C@H](O)C(F)(F)C2` , output reported ΔTm.
Solution: 0.15 °C

Exercise: Fill in reported ΔTm for this entry: `CC(C)(O)c1ccc(N2Cc3c(ccnc3-c3ccc(F)cc3OCC(F)(F)F)C2=O)cc1`
Solution: -10.3 °C

Exercise: For the compound CCCC(NC(=O)C(CC(C)C)NC(=O)OCc1ccccc1)C(=O)C(=O)NCc1ccccn1 (racemic) , give its reported ΔTm.
Solution: -0.49 °C

====

TEST_TARGET: Tyrosine-protein kinase ABL1 (Homo sapiens)
RUN_PARAMETERS: Compound concentration 20.0 uM
Description: Thermal Shift Assay. Domain: start/stop: S229-K512
Note that class boundaries on ΔTm are low-valued (below 0.3 °C), mid-valued (0.3 °C to below 0.6 °C), high-valued (0.6 °C or more)

Check out these entries, answers already filled in.
COMPOUND	ASSIGNED_LABEL
CCN1C(C)(C)CC(Oc2ccc(C(=O)Nc3ccc(NC(=O)Nc4cc(C(C)(C)C)on4)cc3)nc2)CC1(C)C	high-valued
CC(=O)N[C@@H](CC(=O)O)C(=O)N[C@@H](CC(N)=O)C(=O)N[C@@H](CC(C)C)C(=O)N[C@H](C=O)CC(=O)O	low-valued
CCC(NC(=O)C(CC(C)C)NC(=O)OCc1ccccc1)C(=O)C(=O)NCCCN1CCOCC1 (configuration not stated)	low-valued

Now let's try a different one.
Exercise: # classify by ΔTm band: `CC(C)(C)OC(=O)Nc1ccc(CNc2nccc(Nc3cc(C(=O)OC(C)(C)C)[nH]n3)n2)cc1`
Solution: high-valued

====

# reported ΔTm; entries follow
TEST_TARGET: Casein kinase I isoform delta (Homo sapiens) (UniProt P48730)
Sequence (P48730 whole entry, looked up, canonical isoform): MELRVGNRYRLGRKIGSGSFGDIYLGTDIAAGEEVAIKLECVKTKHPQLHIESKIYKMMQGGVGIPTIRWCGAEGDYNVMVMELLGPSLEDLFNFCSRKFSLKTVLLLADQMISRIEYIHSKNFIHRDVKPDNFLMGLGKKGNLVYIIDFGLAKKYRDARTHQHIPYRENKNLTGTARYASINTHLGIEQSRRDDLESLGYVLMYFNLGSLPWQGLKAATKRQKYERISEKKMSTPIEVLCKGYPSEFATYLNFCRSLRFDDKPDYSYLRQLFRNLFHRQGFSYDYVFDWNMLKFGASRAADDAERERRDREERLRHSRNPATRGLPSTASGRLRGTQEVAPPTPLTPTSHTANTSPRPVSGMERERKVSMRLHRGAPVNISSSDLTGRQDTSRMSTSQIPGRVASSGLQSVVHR
RUN_PARAMETERS: Compound concentration 20.0 uM
Description: Thermal Shift Assay. Domain: start/stop: M1-K294
Residues, ends and D or L forms follow the SMILES beside them. *: point of attachment. Cbz = O=C(OCc1ccccc1)*; CH2F = FC*

COMPOUND	TEST_TARGET	MEASURED_VALUE
CCCOc1cccc(Oc2cc3c(cc2NS(=O)(=O)c2cccc(C(=O)NCCOCCOCCOCC(=O)N[C@H](C(=O)N4C[C@H](O)C[C@H]4C(=O)NCc4ccc(-c5scnc5C)cc4)C(C)(C)C)c2)n(C)c(=O)n3C)c1	Casein kinase I isoform delta (Homo sapiens) (UniProt P48730)	0.83 °C
Cc1cc(/N=N/c2ccc(S(=O)(=O)Nc3ccccn3)cc2)c(N)cc1O	Casein kinase I isoform delta (Homo sapiens) (UniProt P48730)	-0.2 °C
CCCn1/c(=N/C(=O)c2cccc(C(N)=O)c2)[nH]c2ccccc21	Casein kinase I isoform delta (Homo sapiens) (UniProt P48730)	0.95 °C
COC(=O)CC[C@H](NC(=O)[C@H](C)NC(=O)OCc1ccccc1)C(=O)N[C@H](C(=O)N[C@@H](CC(=O)OC)C(=O)CF)C(C)C (Cbz-AE(OMe)VD(OMe)-CH2F)	Casein kinase I isoform delta (Homo sapiens) (UniProt P48730)	-0.04 °C
Nc1nc2cc(CC[C@H]3C[C@@H](n4ccc5c(N)ncnc54)[C@H](O)[C@@H]3O)ccc2cc1Br	Casein kinase I isoform delta (Homo sapiens) (UniProt P48730)	4.13 °C

Exercise: Give the reported value of ΔTm for this record: `COc1cc(C(=O)NCC2(N(C)C)CCCC2)cc(OC)c1OCc1ccccc1`
Solution: -0.21 °C

====

Below, each entry is listed with its recorded ΔTm.
TEST_TARGET: Casein kinase I isoform delta (Homo sapiens) (UniProt P48730)
RUN_PARAMETERS: Compound concentration 20.0 uM
Residues, ends and D or L forms follow the SMILES beside them.
Express the result in °C but write the number alone.

COMPOUND	UNIT_DESCRIPTOR	ΔTm
NC(=O)c1cnc(N[C@@H]2CCCC[C@@H]2N)nc1Nc1cccc(-n2nccn2)c1	°C	6.3
O=C(C1CC1)N1CCN(Cn2sc3ccccc3c2=O)CC1	°C	-0.26
OC1CN=C2c3ccn([C@@H]4O[C@H]([C@H](O)c5ccc(Cl)cc5)[C@@H](O)[C@H]4O)c3N=CN21 (stereo partly specified)	°C	0.22
N#Cc1cc2cc(CN3CCC(Nc4ncnc5sc(CC(F)(F)F)cc45)CC3)ccc2[nH]1	°C	1.89
COc1ccc(-c2c(-c3ccc(C#N)c(F)c3)nc(N3CCC(N)CC3)n(C)c2=O)cc1F	°C	0
CCN1C(C)(C)CC(Oc2ccc(C(=O)Nc3ccc(NC(=O)Nc4cc(C(C)(C)C)on4)cc3)nc2)CC1(C)C	°C	0.21
CC(=O)Nc1ccc(C(=O)Nc2ccc(F)cc2N)cc1	°C	0.17
CC[C@H](C)[C@H](NC(C)=O)C(=O)N[C@@H](CCC(=O)O)C(=O)N[C@H](C(=O)N[C@H](C=O)CC(=O)O)[C@@H](C)O (Ac-IETD-aldehyde)	°C	0.05
CC(C)(C)OC(=O)N1CCN(C(=O)n2cc(-c3ccc(OC(F)(F)F)cc3)nn2)C(Cc2ccccc2)C1 (stereo unspecified)	°C	-0.73
Cn1c(=O)cc(N2CCC[C@@H](N)C2)n(Cc2ccccc2C#N)c1=O	°C	-0.43

# evaluate next
Exercise: Specify ΔTm for `Cc1[nH]nc(C(F)(F)F)c1Cc1sc2c(c1C(=O)N1C[C@](C)(O)CO1)c(=O)n(C)c(=O)n2C(C)C` and stop.
Solution: -0.46
